Tested on: MCF-7 breast cancer cell line
Assay: MTT assay, cytotoxicity against breast cancer cell line MCF-7
Settings: Homo sapiens, MCF7, 48 h, read-out: In vitro cytotoxicity IC50 MCF-7
propertyName: pIC50
The scale used: pIC50 is minus the common logarithm of the concentration in molar units.

Illustrative cases are given below, each with its answer.
compound | propertyName | observed
O=C(C=Cc1ccc(Oc2ccc(Br)cc2)cc1)c1ccc(Br)cc1 | pIC50 | 4.88
CC(=O)N1N=C(c2ccc(Br)cc2)CC1c1ccc(Oc2ccc(Br)cc2)cc1 (stereo not drawn) | pIC50 | 4.77
CC(=O)N1N=C(c2ccc(C)cc2)CC1c1ccc(Oc2ccc(Br)cc2)cc1 (stereo not drawn) | pIC50 | 5.13
O=C(C=Cc1ccc(Oc2ccc(Cl)cc2)cc1)c1ccc(Cl)cc1 | pIC50 | 4.70
CC(=O)N1N=C(c2ccc(Cl)cc2)CC1c1ccc(Oc2ccc(Cl)cc2)cc1 (stereo not drawn) | pIC50 | 5.07

[ask] Identify measured pIC50 associated with Cc1ccc(C(=O)C=Cc2ccc(Oc3ccc(Br)cc3)cc2)cc1
[reply] 5.82

[ask] Give pIC50 for CC(=O)N1N=C(c2ccc(Br)cc2)CC1c1ccc(Oc2ccc(Cl)cc2)cc1 (stereo not drawn)
[reply] 5.30

[ask] Give the reported value of pIC50 for this record: CC(=O)N1N=C(c2ccc(C)cc2)CC1c1ccc(Oc2ccc(Cl)cc2)cc1 (stereo not drawn)
[reply] 5.32

[ask] Give the reported value of pIC50 for this record: O=C(C=Cc1ccc(Oc2ccc(Cl)cc2)cc1)c1ccc(Br)cc1
[reply] 4.35
